system: ATP; assay: switch fluorescence ratio, 500 uM ATP over buffer (Cy3 cluster intensity, sum of 5 cycles each) (fold (ratio)); higher = stronger signal-on switching upon ATP binding; sequences stand for … in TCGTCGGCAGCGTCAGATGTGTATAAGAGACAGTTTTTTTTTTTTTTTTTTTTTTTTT…TC; conditions: aptamer strand: ATP DNA aptamer (quencher-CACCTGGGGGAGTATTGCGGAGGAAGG + anchor), 100 nM annealed; ATP concentration: 500 uM;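 note: ATP exposure 15 min at 22 °C before imaging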
I would appreciate it if you labelled entries label 1 when switch fluorescence ratio is 1 or higher, otherwise label 0.

Illustrative cases are given below, each with its answer.
[
  {
    "sequenceData": "TGTAATCCGC",
    "assignedLabel": "label 1"
  },
  {
    "sequenceData": "ACTATATTTG",
    "assignedLabel": "label 1"
  }
]

Next, consider the following sequence.
Lookup: Say whether `GCAGAAAAAT` shows switch fluorescence ratio of 1 or more.
Found: label 1

---

test system: ATP; experiment: switch fluorescence ratio, 500 uM ATP over buffer (Cy3 cluster intensity, sum of 5 cycles each) (fold (ratio)); higher = stronger signal-on switching upon ATP binding; sequences stand for … in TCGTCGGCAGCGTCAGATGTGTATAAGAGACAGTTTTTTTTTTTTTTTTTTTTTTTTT…TC; details: aptamer strand: ATP DNA aptamer (quencher-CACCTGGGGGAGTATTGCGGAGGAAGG + anchor), 100 nM annealed; ATP concentration: 500 uM;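 note: ATP exposure 15 min at 22 °C before imaging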
valueKind: switch fluorescence ratio
Lab note: record just the number, no unit beside it.

Example sequences with recorded switch fluorescence ratio:
[
  {
    "sequenceData": "TAATCTTGGG",
    "experimentalValue": 1
  },
  {
    "sequenceData": "GGAACGCAGG",
    "experimentalValue": 0.998
  },
  {
    "sequenceData": "TGTAATATGG",
    "experimentalValue": 1.1
  }
]

Query sequence follows.
Lookup: For the sequence `GTCTTATGGC` , give its measured switch fluorescence ratio value.
Found: 0.997

---

List of switch fluorescence ratio values.
system: ATP; assay: switch fluorescence ratio, 500 uM ATP over buffer (Cy3 cluster intensity, sum of 5 cycles each) (fold (ratio)); higher = stronger signal-on switching upon ATP binding; sequences stand for … in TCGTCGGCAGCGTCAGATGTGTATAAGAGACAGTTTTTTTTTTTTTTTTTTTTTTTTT…TC; details: aptamer strand: ATP DNA aptamer (quencher-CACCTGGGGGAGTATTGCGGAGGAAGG + anchor), 100 nM annealed; ATP concentration: 500 uM;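 note: ATP exposure 15 min at 22 °C before imaging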

Example sequences with recorded switch fluorescence ratio:
[
  {
    "sequenceData": "TTCGGTTACG",
    "measurementTarget": "ATP",
    "switch fluorescence ratio": 1.01
  },
  {
    "sequenceData": "GTGGGTAGCG",
    "measurementTarget": "ATP",
    "switch fluorescence ratio": 0.994
  },
  {
    "sequenceData": "CAGGGGGTAC",
    "measurementTarget": "ATP",
    "switch fluorescence ratio": 1.09
  },
  {
    "sequenceData": "GGTTCACTTT",
    "measurementTarget": "ATP",
    "switch fluorescence ratio": 1.02
  },
  {
    "sequenceData": "GCTAGTATG",
    "measurementTarget": "ATP",
    "switch fluorescence ratio": 0.995
  }
]

Lookup: For the sequence `TGCGTCAGGC` , give its measured switch fluorescence ratio value.
Found: 1.09

Lookup: For the sequence `ATGGCAGGGC` , give its measured switch fluorescence ratio value.
Found: 1.01

Lookup: For the sequence `TGCTTTTCCG` , give its measured switch fluorescence ratio value.
Found: 1.1

Lookup: For the sequence `CTGGGGCGTG` , give its measured switch fluorescence ratio value.
Found: 1.02

Lookup: For the sequence `TTTGTTGTTG` , give its measured switch fluorescence ratio value.
Found: 0.984

Lookup: For the sequence `ATTGTATTGT` , give its measured switch fluorescence ratio value.
Found: 0.987

Lookup: For the sequence `ACTGGATCCA` , give its measured switch fluorescence ratio value.
Found: 1.01

Lookup: For the sequence `ACCACGTGAC` , give its measured switch fluorescence ratio value.
Found: 1.51

Lookup: For the sequence `TATAAAACGG` , give its measured switch fluorescence ratio value.
Found: 1.14

---

List of switch fluorescence ratio values.
tested on: ATP; assay: switch fluorescence ratio, 500 uM ATP over buffer (Cy3 cluster intensity, sum of 5 cycles each) (fold (ratio)); higher = stronger signal-on switching upon ATP binding; sequences stand for … in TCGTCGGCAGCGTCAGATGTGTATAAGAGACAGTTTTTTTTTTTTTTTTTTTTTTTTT…TC; settings: aptamer strand: ATP DNA aptamer (quencher-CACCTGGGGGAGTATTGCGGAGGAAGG + anchor), 100 nM annealed; ATP concentration: 500 uM;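 note: ATP exposure 15 min at 22 °C before imaging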
Lab note: record just the number, no unit beside it.

Lookup: For the sequence `TGAGCATAGT` , give its measured switch fluorescence ratio value.
Found: 1.03

Lookup: For the sequence `ATCAAGACAG` , give its measured switch fluorescence ratio value.
Found: 1.01

Lookup: For the sequence `TTTAGGGTTC` , give its measured switch fluorescence ratio value.
Found: 1.04

Lookup: For the sequence `TGATCTGGGG` , give its measured switch fluorescence ratio value.
Found: 1.01

Lookup: For the sequence `GCGGGAGGGA` , give its measured switch fluorescence ratio value.
Found: 1.03

Lookup: For the sequence `GGGGGGAAGT` , give its measured switch fluorescence ratio value.
Found: 1.01

Lookup: For the sequence `TGCATGGGTG` , give its measured switch fluorescence ratio value.
Found: 1.06

Lookup: For the sequence `ATAGGGAGTA` , give its measured switch fluorescence ratio value.
Found: 0.979

Lookup: For the sequence `GATTTTGCCA` , give its measured switch fluorescence ratio value.
Found: 0.968

Lookup: For the sequence `AAGGGCTTAC` , give its measured switch fluorescence ratio value.
Found: 1.14

Lookup: For the sequence `CCGGATTTTG` , give its measured switch fluorescence ratio value.
Found: 0.981

Lookup: For the sequence `GACTAGACGG` , give its measured switch fluorescence ratio value.
Found: 1.13

Lookup: For the sequence `ACTTAAGTTT` , give its measured switch fluorescence ratio value.
Found: 1.01

Lookup: For the sequence `GCCGCGGGTC` , give its measured switch fluorescence ratio value.
Found: 1.08

Lookup: For the sequence `AAAGTGTTGT` , give its measured switch fluorescence ratio value.
Found: 0.979

Lookup: For the sequence `CAATTATTTT` , give its measured switch fluorescence ratio value.
Found: 1.02

Lookup: For the sequence `TTTTTGATGG` , give its measured switch fluorescence ratio value.
Found: 1.02

---

List of switch fluorescence ratio values.
tested on: ATP; test: switch fluorescence ratio, 500 uM ATP over buffer (Cy3 cluster intensity, sum of 5 cycles each) (fold (ratio)); higher = stronger signal-on switching upon ATP binding; sequences stand for … in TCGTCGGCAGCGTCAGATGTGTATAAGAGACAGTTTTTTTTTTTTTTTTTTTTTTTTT…TC; conditions: aptamer strand: ATP DNA aptamer (quencher-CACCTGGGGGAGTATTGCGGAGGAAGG + anchor), 100 nM annealed; ATP concentration: 500 uM;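 note: ATP exposure 15 min at 22 °C before imaging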

Example sequences with recorded switch fluorescence ratio:
[
  {
    "sequenceData": "AAGAGGTGGG",
    "switch fluorescence ratio": 0.99
  },
  {
    "sequenceData": "TCACAGTTGC",
    "switch fluorescence ratio": 0.99
  },
  {
    "sequenceData": "ACTTGGACGT",
    "switch fluorescence ratio": 1.05
  },
  {
    "sequenceData": "CAAGGGCGGG",
    "switch fluorescence ratio": 0.997
  },
  {
    "sequenceData": "TCTTTTACTG",
    "switch fluorescence ratio": 1.01
  }
]

Lookup: For the sequence `TTTAGATGTG` , give its measured switch fluorescence ratio value.
Found: 1

Lookup: For the sequence `TGGTTGGGTA` , give its measured switch fluorescence ratio value.
Found: 0.997

Lookup: For the sequence `GGGATAACAG` , give its measured switch fluorescence ratio value.
Found: 1.04

---

system: ATP; test: switch fluorescence ratio, 500 uM ATP over buffer (Cy3 cluster intensity, sum of 5 cycles each) (fold (ratio)); higher = stronger signal-on switching upon ATP binding; sequences stand for … in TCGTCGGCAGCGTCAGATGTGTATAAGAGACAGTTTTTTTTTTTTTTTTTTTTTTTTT…TC; details: aptamer strand: ATP DNA aptamer (quencher-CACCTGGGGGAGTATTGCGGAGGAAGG + anchor), 100 nM annealed; ATP concentration: 500 uM;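 note: ATP exposure 15 min at 22 °C before imaging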
I would appreciate it if you labelled entries t when switch fluorescence ratio is 1 or higher, otherwise f.

[
  {
    "sequenceData": "AAGTAGGGTA",
    "measurementTarget": "ATP",
    "assignedLabel": "t"
  },
  {
    "sequenceData": "TTTCTCAGTA",
    "measurementTarget": "ATP",
    "assignedLabel": "t"
  },
  {
    "sequenceData": "AGCGCGATTC",
    "measurementTarget": "ATP",
    "assignedLabel": "t"
  }
]

Lookup: Say whether `ATATTCCGTT` shows switch fluorescence ratio of 1 or more.
Found: f

Lookup: Say whether `CGGAAAGAAA` shows switch fluorescence ratio of 1 or more.
Found: t

Lookup: Say whether `ACGTAGGTTT` shows switch fluorescence ratio of 1 or more.
Found: t

Lookup: Say whether `ACGGAGCCTT` shows switch fluorescence ratio of 1 or more.
Found: t

Lookup: Say whether `TTTTCTCTGT` shows switch fluorescence ratio of 1 or more.
Found: f
